Source: patent US20150266920A1

- assay system: β 5i (Homo sapiens, UniProt P20618+P28062)
- Construct: protease activity associated with the proteasome complex in cultured cells; endogenous in cells
- experiment notes: Cell-Based Proteasome Activity/Selectivity Assay, Ramos cells, substrate (ANW)2Rh110
- condition: β5i substrate (ANW)2Rh110, read-out: Ic50 ramos: ac-(anw)2-r110
- Excerpt: Cell-Based Proteasome Activity/Selectivity Assay The Cell-Based Proteasome subunit activity/selectivity assay was a panel of 5 fluorogenic assays that independently measured the activity of β5c or β 5i (chymotrypsin-like activity), β2c/2i (trypsin-like), and β 1c or β 1i (caspase-like) protease activity associated with the proteasome complex in cultured cells. […]
endpoint name: IC50 (nM)
Numbers only, in nM.

So for C[C@@H]1NC(=O)CCc2cccc(c2)-c2cccc(c2)CC[C@@H](C(=O)N[C@@H](Cc2ccccc2)C(=O)C(=O)NCc2ccccc2)NC1=O , the logged IC50 turned out to be 19
